system: K-562 leukemia; assay: NCI tumour cell line growth inhibition, 384-well format; in the data active = GI50 below about 0.43 µM; inactive = the rest
Labels: active, inactive

CNC(=O)CN1CCC(Oc2cc3c(Nc4cccc(Cl)c4F)ncnc3cc2OC)CC1	inactive
C[C@@H]1OCC2(CCN(c3cnc(Sc4ccnc(N)c4Cl)c(N)n3)CC2)[C@@H]1N	active
CC#CC(=O)N1CC[C@@H](n2c(=O)n(-c3ccc(Oc4ccccc4)cc3)c3c(N)ncnc32)C1	inactive
CCOCCOC[C@H]1CCCN(c2ccnc3sc(C(N)=O)c(N)c23)C1	inactive

###

test system: MDA-MB-435 melanoma; test: NCI tumour cell line growth inhibition, 384-well format
Readout: TGI

CNC(=O)CN1CCC(Oc2cc3c(Nc4cccc(Cl)c4F)ncnc3cc2OC)CC1	83.5 µM
CCOCCOC[C@H]1CCCN(c2ccnc3sc(C(N)=O)c(N)c23)C1	> 100 µM
C[C@@H]1OCC2(CCN(c3cnc(Sc4ccnc(N)c4Cl)c(N)n3)CC2)[C@@H]1N	> 100 µM
CC#CC(=O)N1CC[C@@H](n2c(=O)n(-c3ccc(Oc4ccccc4)cc3)c3c(N)ncnc32)C1	> 80.4 µM

###

test system: UACC-257 melanoma; assay: NCI tumour cell line growth inhibition, 384-well format
Listed below: GI50 values for each entry.
Readout: GI50

CC#CC(=O)N1CC[C@@H](n2c(=O)n(-c3ccc(Oc4ccccc4)cc3)c3c(N)ncnc32)C1	19.7 µM
CCOCCOC[C@H]1CCCN(c2ccnc3sc(C(N)=O)c(N)c23)C1	61.1 µM
CNC(=O)CN1CCC(Oc2cc3c(Nc4cccc(Cl)c4F)ncnc3cc2OC)CC1	14.6 µM
COc1cc(N2CCC(N3CCN(C)CC3)CC2)ccc1Nc1ncc(Cl)c(Nc2ccccc2S(=O)(=O)C(C)C)n1	0.571 µM

###

Readings of TGI for the listed molecules
system: NCI-H226 lung; assay: NCI tumour cell line growth inhibition, 384-well format
Readout: TGI (µM)

CNC(=O)CN1CCC(Oc2cc3c(Nc4cccc(Cl)c4F)ncnc3cc2OC)CC1	29.9
COc1cc(N2CCC(N3CCN(C)CC3)CC2)ccc1Nc1ncc(Cl)c(Nc2ccccc2S(=O)(=O)C(C)C)n1	0.648
